# IC50 listing for each entry below
# test target: Human SARS-CoV-2_Wuhan S (SmT1) (SARS-CoV-2 (Wuhan), UniProt P0DTC2 14-1208)
# measurement protocol: flow cytometry SVNA, VHH-Fc vs biotin-S binding to Vero E6 ACE2
Write the answer as a number in nM, unit excluded.

Below, 10 binders whose answers are already recorded.
Prompt: Determine its reported IC50: NRCoV2-04 VHH-Fc (Fc fusion, bivalent VHH-Fc) AVQLVDSGGGLVQPGGSLRLSCAASGSPFSNVVMAWYRQAPGKQRERVAFISGGGIADYIMSVKGRFTISRDNAKNTVYLQMNSLKPEDTAVYYCWSSYESTWGQGTQVTVSS
Completion: 11.7

Prompt: Determine its reported IC50: NRCoV2-18 VHH-Fc (Fc fusion, bivalent VHH-Fc) EVQLVESGGGLVQAGGSLRLSCVASGITISGYNMAWWRQTRGKQTERVAFINSGGSTTYSDSVKGRFTISRDNGKNTAYLQMNSLNAEDTADYFCSLHTSHDYWGQGTQVTVSS
Completion: 12

Prompt: Determine its reported IC50: NRCoV2-10 VHH-Fc (Fc fusion, bivalent VHH-Fc) QLQLQESGGGLVQPGGSLTLSCAASGNTFSRSNMHWYRQAPGAQREWVAAISSRGISTYAYSAKGRFTISRDNAKNTVSLQMNSLKPEDTAVYYCYAADDLGDYWGQGTQVTVSS
Completion: 7.7

Prompt: Determine its reported IC50: NRCoV2-12 VHH-Fc (Fc fusion, bivalent VHH-Fc) EVQLQQSGGGLVQAGGSLRLSCAASGRTFRNYVMGWFRQAPQAPGKDHEFVAAISWGGTEIYYADSVKGRFTISRDNAKNTVYLQMNSLKPEDTAVYYCAADRGLSYYYTRTTEYNYWGQGTQVTVSS
Completion: 7.3

Prompt: Determine its reported IC50: NRCoV2-SR01 VHH-Fc (Fc fusion, bivalent VHH-Fc) EVQLVQSGGGSVQAGGSLRLSCVASGFTFDNYAIGWFRQAPGKEREGVSCISGNGGVTIYADSVKGRFTISRDNAKNLVYLQMNSLKPEDTAVYYCAATGIRSTWSVYGCSRLAGPYDYWGQGTQVTVSS
Completion: 6.6

Prompt: Determine its reported IC50: NRCoV2-15 VHH-Fc (Fc fusion, bivalent VHH-Fc) EVQLVSSGGGLVEAGGSLRLSCIASGSTSGRNTMGWFRQAPGKQREWVAIVSTSGATNYAGSVKGRFTLSRDNAKNAVYLQMNNLKPEDTAVYYCYAAYGGGGDYWGQGTQVTVSS
Completion: 8.1

Prompt: Determine its reported IC50: NRCoV2-1d VHH-Fc (Fc fusion, bivalent VHH-Fc) EVQLVESGGGSVQPGGSLRLSCAASGSTLDYYAIGWFRQAPGKEREWVSSVSSSDGNTLYADSVKGRFTISRDNAKNTVYLQMNSLKAEDTAVYVCAADYSMRPFAVGRWHRDYEYWGQGTQVTVSS
Completion: 5.4

Prompt: Determine its reported IC50: NRCoV2-17 VHH-Fc (Fc fusion, bivalent VHH-Fc) EVQLQQSGGGLVQTGGSLRLSCAAAGSPFSQLAMSWYRQISGKERAWVASISPTGNRSYSKIAKGRFTISRDNAKNTVTLQMTSLKPEDTAAYICQAANVNGGDYWGQGTQVTVSS
Completion: 8.6

Prompt: Determine its reported IC50: NRCoV2-1a VHH-Fc (Fc fusion, bivalent VHH-Fc) EVKLVQSGGGSVQPGGSLRLSCAASGSTLDYYAIGWFRQAPGKEREWVSCVSSSDGSTLYADSVKGRFTISRDNAKNTVYLQMNSLKPEDTAVYVCAADYSMRPLWVSRWHRDYEYWGQGTQVTVSS
Completion: 9.2

Prompt: Determine its reported IC50: NRCoV2-02 VHH-Fc (Fc fusion, bivalent VHH-Fc) EVQLVESGGGLVQAGGSLRLSCAASGFTFSNYAMNWVRQAPGKGLEWVSGISGRGDDTRYADSVKGRFTISRDNAKNTLFLQMRSLRPEDTGVYRCTKGPDLYYFGSGYSDRGQGTQVTVSS
Completion: 5

---
Prompt: Determine its reported IC50: NRCoV2-20 VHH-Fc (Fc fusion, bivalent VHH-Fc) EVQLQQSGGGLVQPGGSLRLSCAASGRTFSNYVVGWFRQAPQAPGKDHEFVAVISGSDTETYYADSVKGRFTISRDNAKNTVYLQMNSLKPEDTAVYYCAADRGMSYYYTRATEYYYWGQGTQVTVSS
Completion: 8.7

Prompt: Determine its reported IC50: NRCoV2-MRed05 VHH-Fc (Fc fusion, bivalent VHH-Fc) EVQLVESGGGLVQPGGSLRLSCAASGFTLDYYAIGWFRQAPGKEREGVSCISSSDGSTLYADSVKGRFTISRDNAKNTVYLQMNSLKPEDTAVYYCATGPQAYYSGSYYFQCPQAGMDYWGKGTQVTVSS
Completion: 6.1

Prompt: Determine its reported IC50: NRCoV2-05 VHH-Fc (Fc fusion, bivalent VHH-Fc) EVKLVQSGGGLVQPGGSLRLSCAASGFIFSNYAMNWVRQAPGKGLEWVSGINSGGGDTRYADSVKGRFTVSRDNAKNTLYLQMNSLKPEDTGVYYCSKGPVSSYYGSGYDYRGQGTQVTVSS
Completion: 6.7

Prompt: Determine its reported IC50: NRCoV2-MRed04 VHH-Fc (Fc fusion, bivalent VHH-Fc) EVQLVESGGGLVQPGRSLRLSCAASGNSFSISTMGWFRQAPGKERELVASIWSDTTTSYADSVKGRFTISTDNTRTKVYLQMSSLNPEDTAVYYCAADRGFVVRGQYDYWGQGTQVTVSS
Completion: 4.6

Prompt: Determine its reported IC50: NRCoV2-11a VHH-Fc (Fc fusion, bivalent VHH-Fc) EVQLQQSGGGLVQPGGSLRLSCAASGFTLDSYNIAWFRQAPGKEREWISYISRYYESTYYSDSVKGRFTTSRDGDKKTVSLQMNSLKSEDTAVYYCAARSRDFSSPISATDKYGSWGQGTQVTVSS
Completion: 9.7

Origin of measurements: patent US20240270826A1
